- Tested on: MS2 coat protein
- assayProtocol: apparent KD of MS2 coat protein; designed switch direction (-1 OFF switch, 1 ON switch): -1; higher = weaker reporter binding
- cond: input ligand: FMN 200 uM
Lab note: anything with apparent KD of MS2 coat protein at or over 0.02 µM counts as Criterion met; the rest go in Criterion not met.

Field: example entries. Status: answers known.
sequenceEntry | label
AUAAUGUAAGGAUAUAUGAAUCACGGUGAUACACCGUGAAGAUAGAAGGUACAUGAGGAUCACCCAUGUAAGGC [Mod of Anonveat 12 - Jieux - Exclusion 4] (Eterna round: R97, puzzle: Exclusion 4) | Criterion not met
GUACAACAUGAGGAUCACCCAUGUGAGGAUAUGCGAAUUUCAUCAAAAGAUGAAAUUUGCAGAAGGCACAGUAC [Omei Ex1 A8] (Eterna round: R97, puzzle: Exclusion 1) | Criterion met
AGUCAGGCGGUAGGAUAUCCAUAUCGAGUGACCCUUUCAUAACAUGAGGAUCACCCAUGUCGGUGGGAGAAGGGCCGUACGGCA [Mat - Exclusion NG 2 - Mod of JL - D68] (Eterna round: R96, puzzle: Exclusion NG 2) | Criterion met
GCACGAAGUGUAGGAUAUCUGUGCGAUUAGCUCAGAGAAGGACACAUGAGGAUCACCCAUGUGUUCCAGCGAAAGCAAACGUGC [Eli exng1 - 055] (Eterna round: R96, puzzle: Exclusion NG 1) | Criterion not met
CAUGAUUGGCGAGGAUAUUGAUCUAGUUGGCGACGAGAAGGCGCCUGUCACAUGAGGAUCACCCAUGUGAGUCUGGUGGAUGAG [Ex NG1 #87] (Eterna round: R96, puzzle: Exclusion NG 1) | Criterion met
CGUAGCAAAGUGAGGAUAUCUAGAGCGAUAGCUCUAGAGAAGGCACAUGAGGAUCACCCAUGUGAUUAGCUACG [BmEx4/9-A4] (Eterna round: R97, puzzle: Brourd's mod of Exclusion 4) | Criterion met

Could you verify whether the entry UUUUAGUCAGGAUAUACAUGAGGAUCACCCAUGUAAAAUUUUAAUUUAAUUUUAAGGUGUAGAAGGGACAUUUU [Ex3 #5] (Eterna round: R97, puzzle: Exclusion 3) shows apparent KD of MS2 coat protein of no less than 0.02 µM?
Criterion met

----------
- Test system: MS2 coat protein
- assayProtocol: apparent KD of MS2 coat protein; designed switch direction (-1 OFF switch, 1 ON switch): -1; higher = weaker reporter binding
- cond: Eterna round: R95; input ligand: microRNA oligo, concentration not stated
Overview of recorded apparent KD of MS2 coat protein for various sequences
Provide only the numeric value, understood in nM.

Solved entries:
sequenceEntry | apparent KD of MS2 coat protein / nM
CCUCCACAUGAGGAUCACCCAUGUCAGGAUAUCGUGUGUUUUUUUUCGGUCUUGCGUGCGAGAAGGGACGUCUU (puzzle: Exclusion 1) | 32.5
GACUAGGCAGGAUAUACAUGAGGAUCACCCAUGUGUCUGCGUUGGGCACGUGAACACCGUAGAAGGGCCUUGAC [ChP 13.04.2015 #14] (puzzle: Exclusion 3) | 14.4
AAAAGCAAGCAAAGAUUCUACAUGAGGAUCACCCAUGUGCUCGUCUUAUAAAGUACUAUCACGAAAGUGAUAGUACA [Sensor 3, v1 - 42] (puzzle: Sensor v3, turn-off variant 1) | 142
GAGGGACAUGAGGAUCACCCAUGUGAGGAUAUGUGAGAAGGAUUGGAGAGAAAAGGAAACAGAAGGCGCGGGAG [JR_Exclu1_Sub086] (puzzle: Exclusion 1) | 50.9
AGUAACUAUCACGAAAGUGAUAGUUACAAAACAGGUGAAACAUGAGGAUCACCCAUGUCCUCAUUUGCUCGUCUUAU [Sensor 3 - 3] (puzzle: Sensor v3, turn-off variant 2) | 384
GGUCGGCGAGGAUAUACAUGAGGAUCACCCAUGUGAUAGAUUGCACGCGUACGUGUAUGUAGAAGGCGCUGACG [JL-ex3-3.30 salish99 mod] (puzzle: Exclusion 3) | 29.6

Sample UUUUAACAUGAGGAUCACCCAUGUGAGGAUAUCGAAAUUUAUAUUAAUAUUUAUUAAUCGAGAAGGCACAUUUU [JMF 60] (puzzle: Exclusion 1) — what was its apparent KD of MS2 coat protein?
100

Return reported apparent KD of MS2 coat protein; argument: GGUGGACAUGAGGAUCACCCAUGUGAGGAUAUCGGCCGGCUAGUGGUGGCUGGCUUCUCGAGAAGGCGCAUAGU [Exclusion 1 V76] (puzzle: Exclusion 1)
46.8

----------
- Test system: MS2 coat protein
- assayProtocol: apparent KD of MS2 coat protein; designed switch direction (-1 OFF switch, 1 ON switch): 1; higher = weaker reporter binding
- cond: Eterna round: R95; input ligand: FMN 200 uM
apparent KD of MS2 coat protein by entry:
# number only, unit nM dropped from output

sequenceEntry | testedTarget | measurementType | val
GGAGCCGGCACUGAGGAUAUUCAUAGUGUAACAUGAGGAUCACCCAUGUAGGCCCUGAGGCCUUGGGAGAAGGCAGGUCGGCUCG [JL-ss2-3.04 ViennaUCT mod] (puzzle: Same State 2) | MS2 coat protein | apparent KD of MS2 coat protein | 31.8
UGGAUCUAGGCUUGCCUGGGUCCAUGCUGACAUGAGGAUCACCCAUGUGCAUCCUACAAGCUUUUUGCUUGUCUGUC (puzzle: Sensor for hsa-mir-208a) | MS2 coat protein | apparent KD of MS2 coat protein | 60.7
GGUCCAGCCUGAGCUGGACCGAAGCAUGUACAUGAGGAUCACCCAUGUCAUGUACAAGCUUUUUGCUCGUCUUAUUG [JL-shm-2.09 JL Mod] (puzzle: Sensor for hsa-mir-208a) | MS2 coat protein | apparent KD of MS2 coat protein | 307
ACAAGCUUUUCUGCAUCGAAAGGUUGAUAACAUGAGGAUCACCCAUGUAAAUAUGAAAACGAUGCUCCUCGUCUUAU [JR_SHM208A_Sub095] (puzzle: Sensor for hsa-mir-208a) | MS2 coat protein | apparent KD of MS2 coat protein | 37.3
AAUAAACAUGAGGAUCACCCAUGUAGUGCUUUAGCAGGAUAUGUGAGGAUCAAAUCCAUGGCAGAAGGGUUAUGGC [Inondiorbi] (puzzle: Same State 1) | MS2 coat protein | apparent KD of MS2 coat protein | 20.1

Find the recorded apparent KD of MS2 coat protein belonging to UUAUAACAUGAGGAUCACCCAUGUCAACAAAGUCGAGGAUAUGGGCAAGAAGUGAGAGAACCAGAAGGCGAAUAUU [Mat - Same State 1 - Mod of UCT - D30] (puzzle: Same State 1) and report it.
72

Can you share its apparent KD of MS2 coat protein? I mean this sequence: AACAAUCUAUCUGAGGAUAUCAUGAUAAUAACAUGAGGAUCACCCAUGUGCAGGAAAACUGCAUAUGAGAAGGCAGAUAGAUUGG [Mat - Same State 2 - Mod - D20] (puzzle: Same State 2)
100

Could you share which apparent KD of MS2 coat protein value was measured for GACAAUCUAUCUGAGGAUAUCAUGAGAAGAACAUGAGGAUCACCCAUGUGCAGGAAAACUGCAUAUGAGAAGGCAGAUAGAUUGA [Mat - Same State 2 - Mod - D16] (puzzle: Same State 2) ?
43.7

----------
Quick reference for apparent KD of MS2 coat protein among some sequences
- System: MS2 coat protein
- assayProtocol: apparent KD of MS2 coat protein, switch OFF state (with FMN for OFF switches, without FMN for ON switches); designed switch direction (-1 OFF switch, 1 ON switch): -1; higher = weaker reporter binding
- cond: FMN input: 0 or 200 uM; Eterna round: R93 (includes R88 designs)
// return the numeric value with its unit appended

sequenceEntry | apparent KD of MS2 coat protein
AACAGUACAGGAUAUACAUGAGGAUCACCCAUGUGAAAAUUAAGUGGAGAACCACAAAGUAGAAGGGUACUGAA [Mat - Exclusion 3 - Eli mod - D57] | 0.179 µM

Notebook entry, MS2 coat protein assay: apparent KD of MS2 coat protein of AAAAAGUUAGGAUAUACAGAUAAAAAAACGAAAAAAAAUCUGUAGAAGGAACAUGAGGAUCACCCAUGUAAAAA [Ex 4 May 2] = ?
0.0167 µM

Record lookup: for MS2 coat protein, what apparent KD of MS2 coat protein belongs to AGUUGGCGAGGAUAUACAUGAGGAUCACCCAUGUGAGAGUAAAGAGUGAGAAAGAGAAGUAGAAGGCGCUGACA [Ruby 56] ?
0.18 µM

----------
- Tested on: MS2 coat protein
- assayProtocol: apparent KD of MS2 coat protein, switch ON state; designed switch direction (-1 OFF switch, 1 ON switch): -1; higher = weaker reporter binding
- cond: FMN input: 0 or 200 uM; Eterna round: R93 (includes R88 designs)
Overview of reported apparent KD of MS2 coat protein across a group of sequences:
Field format: number, assumed nM, no unit text.

Solved entries:
sequenceEntry | val
AAAAAACAUGAGGAUCACCCAUGUGAGGAUAUGAUGCGAAUAAAGAAAGAAUAAAGCAUCAGAAGGCACAAAAA [Mat - Exclusion 1 - Eli mod - D62] | 36.4
AAGAAGAGAGGAUAUACAUAAUAAAAGAAAAGAAACAAAGAACAUGAGGAUCACCCAUGUAGAAGGCUCAAGAA [Khasekhemre Neferhotep I] | 32.1
AAAAAGGCAGGAUAUGCAUACUCACGGAAAAAAAGGUUGGGACAUGAGGAUCACCCAUGUAGAAGGGCCAAAAA [Dora Explored 14 - Jieux - Exclusion 2] | 29.6
AAGAACCAAGGAUAUACAUGAAAGAAAGAAAAGAAAAGAAAACAUGAGGAUCACCCAUGUAGAAGGUGGUAGAA [EteRNA is fun!] | 70.2

For the sequence AACAGUACAGGAUAUACAUGAGGAUCACCCAUGUGAGAAUUAAGUGGCGAACCACAAAGUAGAAGGGUACUGAA [Mat - Exclusion 3 - JL mod - D7] , what apparent KD of MS2 coat protein is on record?
45.3

Give its apparent KD of MS2 coat protein value. Item: AACUGACAUGAGGAUCACCCAUGUCAGGAUAUGACUUGAAAAAAAAAAAAAAAACAUGUCAGAAGGGACAUGGG [Design 55 :P Sub-opt HB]
26.8
